Test system: CHIKV
Type: cell-based, chikungunya virus
Entries annotated with measured Score_si1
// return just the number, without any unit appended

Exam item: Fill in: Score_si1 of Hs_CAMKK2_6 (sense CCGCAAGATCTTCTCTGGGAA; chemistry not given here) is ___
Marked response: 1.65

###

System: CHIKV
Assay type: cell-based, chikungunya virus
Entries annotated with measured Score_si1
// return just the number, without any unit appended

Worked cases, Score_si1 given:
substance: Hs_E2F3_1 (TTGCGTTACTTTAAGTACTAA; chemistry not given here) [reference compound]
measured.parameter: Score_si1
result.number: -2.09
//
substance: Hs_APEX2_3 (AGGGCCCTTCATCGATAGCTA; chemistry not given here) [reference compound]
measured.parameter: Score_si1
result.number: -3.29
//
substance: Hs_DKFZp547E052_2 (CAGGAGATAGGACATCATTTA; chemistry not given here)
measured.parameter: Score_si1
result.number: 2.29
//
substance: Hs_CGI-12_1 (sense AAGATGTTAACTGCAAATAAA; chemistry not given here) [reference compound]
measured.parameter: Score_si1
result.number: -2.28
//
substance: Hs_RASL11B_2 (sense ATGCTTTGGCTTAAACTGTAA; chemistry not given here)
measured.parameter: Score_si1
result.number: 2.53

Exam item: Fill in: Score_si1 of Hs_GP1BB_5 (sense ACGAGTCCTGAGGAGAGAA; chemistry not given here) [reference compound] is ___
Marked response: -1.46

Exam item: Same read-out for Hs_GNB2L1_2 (sense CAGATTGTCTCTGGATCTCGA; chemistry not given here) ?
Marked response: 2.65

###

Entries annotated with measured Score_si1
System: CHIKV
Assay type: cell-based, chikungunya virus
// return just the number, without any unit appended

Worked cases, Score_si1 given:
substance: Hs_GAP43_1 (sense CCGGCTCAGCTGAGACAGAAA; chemistry not given here)
result.number: 2.5

substance: Hs_SHC2_11 (sense TCGGTGCTGGTGGAACAGAAA; chemistry not given here)
result.number: 2.36

substance: s28294 (sense CATTCTGTGGTGAAACATT; chemistry not given here)
result.number: 1.28

# next substance below
Exam item: Fill in: Score_si1 of Hs_ACO2_5 (CGGGAAGACATTGCCAATCTA; chemistry not given here) is ___
Marked response: 2.43

###

System: CHIKV
Type: cell-based, chikungunya virus
Entries annotated with measured Score_si1

substance: Hs_FCGRT_1 (CTCGTCGTCACTAACAGTCAA; chemistry not given here)
target.desc: CHIKV
Score_si1: 2.15
//
substance: Hs_ATP6V0C_2 (CTGGATGTTTATTTATAAAGA; chemistry not given here)
target.desc: CHIKV
Score_si1: 3.5
//
substance: Hs_YEATS4_1 (AAGGGTGTTACTATCGTTAAA; chemistry not given here)
target.desc: CHIKV
Score_si1: 1.23

Exam item: State its Score_si1 on CHIKV: Hs_TGIF_1 (sense TACCCAGAGGACACTTGTAAA; chemistry not given here)
Marked response: 1.41

Exam item: Same read-out for Hs_D21S2056E_1 (CAGGGAATTCAGCTCCAGTAA; chemistry not given here) ?
Marked response: 2.83

Exam item: Same read-out for s26873 (sense CTTCGAGACCGGTTCAAGA; chemistry not given here) ?
Marked response: 2.15

Exam item: Same read-out for Hs_KCTD10_1 (sense AAGGCTTTGTTTAGGGATCAA; chemistry not given here) ?
Marked response: 2.04

Exam item: Same read-out for Hs_LOH12CR1_1 (sense CCCGATGTCATCAAGTTGCAA; chemistry not given here) ?
Marked response: 2.42
